// reported pIC50 for each item listed
experiment: Measurement of Sodium Ion Channel Blocking Effects: In order to measure the sodium ion channel blocking effect, an IonFlux16 Auto patch clamp system (Fluxion, Inc.) and a plate for exclusive use were used. The cells were distributed in an extracellular solution (4 mM KCl, 138 mM NaCl, 1 mM MgCl2, 1.8 mM CaCl2, 5.6 mM glucose, 10 mM HEPES, pH 7.45), and then dispensed in the specified region of the plate, and each of the prepared compound samples was diluted at various concentrations, and then dispensed in the specified region of the plate.; assay type: cell-based
pIC50: −log10 of the molar value.

Past entries and their recorded results:
CN1CCN(c2cc(OC(F)(F)F)ccc2Nc2cc(F)c(S(=O)(=O)Nc3cscn3)cc2Cl)CC1
7.55
CNC1CCN(c2cc(F)ccc2Nc2cc(F)c(S(=O)(=O)Nc3cncnc3)cc2Cl)C1 (stereo not drawn)
< 5.00

# evaluate next
Query: Item under review: `CN[C@@H]1CCN(c2cc(F)ccc2Nc2ccc(S(=O)(=O)Nc3cscn3)c(F)c2)C1` . Reported pIC50?
Reply: < 6.52

====

assay: Measurement of Sodium Ion Channel Blocking Effects: In order to measure the sodium ion channel blocking effect, an IonFlux16 Auto patch clamp system (Fluxion, Inc.) and a plate for exclusive use were used. The cells were distributed in an extracellular solution (4 mM KCl, 138 mM NaCl, 1 mM MgCl2, 1.8 mM CaCl2, 5.6 mM glucose, 10 mM HEPES, pH 7.45), and then dispensed in the specified region of the plate, and each of the prepared compound samples was diluted at various concentrations, and then dispensed in the specified region of the plate.; assay type: cell-based
EXPERIMENTAL_READOUT: IC50 (nM)

1: C[C@@H]1CNCCN1c1cc(Cl)ccc1Nc1cc(F)c(S(=O)(=O)Nc2cscn2)cc1Cl
2: COC1CCN(c2cc(C(F)(F)F)ccc2Nc2ccc(S(=O)(=O)Nc3cscn3)cc2Cl)C1 (stereo unspecified)
3: CNCCN(C)c1cc(C#N)ccc1Nc1cc(F)c(S(=O)(=O)Nc2nccs2)cc1Cl
Query: Order the items by recorded IC50; the first position goes to the largest value. Field: ranking. Enter the labels in the order requested.
Reply: 2, 1, 3

1: CNCCN(C)c1cc(Cl)ccc1Nc1cc(F)c(S(=O)(=O)Nc2nccs2)cc1Cl
2: CC(=O)N[C@@H]1CCN(c2cc(F)ccc2Nc2cc(F)c(S(=O)(=O)Nc3cscn3)cc2Cl)C1
3: CC(=O)N[C@@H]1CCN(c2cc(C(F)(F)F)ccc2Nc2ccc(S(=O)(=O)Nc3cscn3)cc2Cl)C1
4: CNCCN(C)c1cc(C(F)(F)F)ccc1Nc1cc(F)c(S(=O)(=O)Nc2ncc(F)cn2)cc1Cl
Query: Please rank these compounds by IC50 in descending order. Answer format: the labels, ordered as requested.
Reply: 2, 3, 4, 1

====

experiment: Measurement of Sodium Ion Channel Blocking Effects: In order to measure the sodium ion channel blocking effect, an IonFlux16 Auto patch clamp system (Fluxion, Inc.) and a plate for exclusive use were used. The cells were distributed in an extracellular solution (4 mM KCl, 138 mM NaCl, 1 mM MgCl2, 1.8 mM CaCl2, 5.6 mM glucose, 10 mM HEPES, pH 7.45), and then dispensed in the specified region of the plate, and each of the prepared compound samples was diluted at various concentrations, and then dispensed in the specified region of the plate.; type: cell-based
pIC50: −log10 of the molar value.
A collection of compounds and their measured pIC50

CNCCN(C)c1ccccc1Nc1cc(F)c(S(=O)(=O)Nc2cc(C(C)(C)C)on2)cc1Cl
< 5.00

Query: Param item = `O=S(=O)(Nc1cscn1)c1ccc(Nc2ccc(F)cc2N2CC[C@@H](F)C2)c(Cl)c1` ; retrieve measured pIC50.
Reply: < 6.00

Query: Field request: pIC50 | item: CNC1CCN(c2cc(OC)ccc2Nc2ccc(S(=O)(=O)Nc3cscn3)c(F)c2)C1 (stereo unspecified)
Reply: < 6.00

Query: Consider the compound NC1CCN(c2cc(F)ccc2Nc2ccc(S(=O)(=O)Nc3cscn3)c(F)c2)C1 (stereo unspecified) and give its measured pIC50.
Reply: < 6.00

Query: # input compound: `CN[C@@H]1CCCN(c2cc(F)ccc2Nc2ccc(S(=O)(=O)Nc3cscn3)cc2)C1` ; wanted: its pIC50
Reply: < 6.00

Query: Bench note: what pIC50 did `CN[C@@H]1CCCN(c2cc(OC)ccc2Nc2ccc(S(=O)(=O)Nc3cscn3)cc2)C1` show?
Reply: < 6.00

Cited source: ChEMBL document CHEMBL5726731
